Kindly state TGI for each of the entries shown.
- System: SNB-78 CNS
- assay_text: NCI tumour cell line growth inhibition, 48 h
Answers are plain numbers, in µM.

Known results for molecules:
molecule | assay_system | TGI / µM
CCCCCNC(=O)C1C(=O)N(CCCCC)C(=O)/C1=N\N (stereo unspecified) | SNB-78 CNS | 60
CCOc1ccc(NC(=O)/C(=C/c2ccccc2)C(C)=O)cc1 | SNB-78 CNS | 38.8
CCN1CCC(O)(c2ccccc2)C(C(=O)c2ccccc2)C1 (stereo unspecified) | SNB-78 CNS | 54.1
CC[n+]1c(/C=C/c2ccc(N(CCCl)CCCl)cc2)ccc2cc(Br)ccc21 | SNB-78 CNS | 15.4
CC/C(=C(/CC)c1ccc(OP(=O)([O-])[O-])cc1)c1ccc(OP(=O)([O-])[O-])cc1.N.N.N.N.[Pt+4].[Pt+4] | SNB-78 CNS | 6.81

Consider the record given below.
Identify measured TGI corresponding to CC1=C(C(=O)Nc2cc(F)c(F)cc2F)C(c2cccc([N+](=O)[O-])c2)C(C(=O)Nc2ccccc2C(F)(F)F)=C(C)N1 (stereo unspecified)
59.2

Cited source for all entries: PubChem BioAssay (NCI)
